Reference source: ChEMBL document CHEMBL4339208

system: Staphylococcus intermedius; test: Antibacterial activity against Staphylococcus intermedius 1051997 measured after 18 hrs by broth dilution method; assay type: functional; conditions: Staphylococcus intermedius, 1051997, 18 h
Entries and their MIC values follow.
Output spec: scalar in µM, unitless text.

O=C(NCCCNCCNC(=O)C(=O)c1c[nH]c2cc(Br)ccc12)C(=O)c1c[nH]c2cc(Br)ccc12 :: 50
O=C(NCCCOCCOCCOCCCNC(=O)C(=O)c1c[nH]c2cc(Br)ccc12)C(=O)c1c[nH]c2cc(Br)ccc12 :: 12.5
O=C(NCCCCNCCCNC(=O)C(=O)c1c[nH]c2cc(Br)ccc12)C(=O)c1c[nH]c2cc(Br)ccc12 :: 3.12

I'd like to know its MIC. The compound in question is O=C(NCCCNCCCCCCCCNCCCNC(=O)C(=O)c1c[nH]c2cc(Br)ccc12)C(=O)c1c[nH]c2cc(Br)ccc12.O=C(O)C(F)(F)F.O=C(O)C(F)(F)F
12.5

What do we get for CN[C@@H]1[C@H](O[C@H]2[C@H](O[C@H]3[C@H](O)[C@@H](O)[C@H](N=C(N)N)[C@@H](O)[C@@H]3N=C(N)N)O[C@@H](C)[C@]2(O)C=O)O[C@@H](CO)[C@H](O)[C@H]1O ?
10.7
